# testedSystem: Vascular endothelial growth factor receptor 2 (Homo sapiens)
# Sequence (P35968 whole entry): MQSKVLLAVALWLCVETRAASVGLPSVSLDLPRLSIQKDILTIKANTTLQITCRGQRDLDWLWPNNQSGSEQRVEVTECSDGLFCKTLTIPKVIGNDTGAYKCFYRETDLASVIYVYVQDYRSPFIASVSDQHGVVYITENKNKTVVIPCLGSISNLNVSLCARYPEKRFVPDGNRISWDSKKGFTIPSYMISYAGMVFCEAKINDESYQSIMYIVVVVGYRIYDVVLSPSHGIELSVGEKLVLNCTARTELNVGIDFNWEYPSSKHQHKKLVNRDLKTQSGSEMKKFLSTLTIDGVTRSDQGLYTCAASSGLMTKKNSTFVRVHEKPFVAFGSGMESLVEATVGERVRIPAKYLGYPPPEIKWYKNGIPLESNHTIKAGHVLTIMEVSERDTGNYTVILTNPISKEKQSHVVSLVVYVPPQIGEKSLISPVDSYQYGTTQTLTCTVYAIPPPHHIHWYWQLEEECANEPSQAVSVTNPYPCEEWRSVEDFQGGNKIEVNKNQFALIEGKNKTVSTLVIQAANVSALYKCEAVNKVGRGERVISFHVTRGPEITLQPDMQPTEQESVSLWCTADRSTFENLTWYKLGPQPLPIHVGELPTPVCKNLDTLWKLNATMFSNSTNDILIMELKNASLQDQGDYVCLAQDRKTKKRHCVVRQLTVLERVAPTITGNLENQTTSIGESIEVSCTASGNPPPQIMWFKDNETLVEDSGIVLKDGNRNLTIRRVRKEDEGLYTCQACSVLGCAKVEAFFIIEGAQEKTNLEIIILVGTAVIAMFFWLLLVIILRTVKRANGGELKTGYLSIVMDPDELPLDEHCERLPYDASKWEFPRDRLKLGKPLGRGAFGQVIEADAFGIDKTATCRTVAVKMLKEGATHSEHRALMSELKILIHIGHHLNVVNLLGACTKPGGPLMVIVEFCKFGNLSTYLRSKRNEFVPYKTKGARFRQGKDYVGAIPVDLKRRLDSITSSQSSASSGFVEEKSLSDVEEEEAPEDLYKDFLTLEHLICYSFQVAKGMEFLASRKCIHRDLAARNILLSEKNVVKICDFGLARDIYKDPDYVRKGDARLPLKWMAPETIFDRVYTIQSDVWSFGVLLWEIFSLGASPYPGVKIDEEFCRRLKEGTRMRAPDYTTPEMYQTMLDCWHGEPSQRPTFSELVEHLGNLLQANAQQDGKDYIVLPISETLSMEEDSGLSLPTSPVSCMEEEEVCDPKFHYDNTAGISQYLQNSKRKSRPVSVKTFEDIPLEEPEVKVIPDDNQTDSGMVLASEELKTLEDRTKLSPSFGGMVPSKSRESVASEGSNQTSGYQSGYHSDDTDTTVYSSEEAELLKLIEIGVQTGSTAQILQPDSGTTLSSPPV
# experimentNotes: Ratio of semaxanib IC50 to compound IC50 for VEGFR2 phosphorylation in human U251 cells
# Format: cell-based
# conditionSummary: U-251

{"columns": ["smilesEntry", "Ratio IC50"],
 "data": [
  ["CC(C)c1ccc(Nc2nc(N)nc3[nH]c(Cc4ccc(Cl)cc4Cl)cc23)cc1", 8],
  ["Nc1nc(Nc2cccc(F)c2)c2cc(Cc3ccc(Cl)cc3Cl)[nH]c2n1", 40],
  ["Nc1nc(Nc2ccc(Cl)cc2F)c2cc(Cc3ccc(Cl)cc3Cl)[nH]c2n1", 0.26],
  ["Nc1nc(Nc2ccc(Br)cc2Cl)c2cc(Cc3ccc(Cl)cc3Cl)[nH]c2n1", 100]
]}
